tested on: Shigella flexneri; experiment: Antibacterial activity MIC assay (two-fold dilution agar plating); type: cell-based; details: Shigella flexneri ATCC 12022
Where a SMILES comes first, the peptide text is derived from it. Bridges are numbered along the chain shown (N, C = ends). [ ]: non-standard residue; d: D form. The star is where a group is joined. Heptanoyl(6-Me) = CC(C)CCCCC(=O)*; Dab = NCC[C@H](N)C(=O)O
A collection of compounds and their measured Minimal Inhibitory Concentration (MIC)

# Compound, Minimal Inhibitory Concentration (MIC) / µg/mL
records = [
    ("C=CCON=C(C(=O)NC1C(=O)N(OS(=O)(=O)O)C1(C)C)c1csc(N)n1 (stereo not shown)", 0.5),
    ("CC(C)CCCCC(=O)N[C@@H](CCN)C(=O)N[C@H](C(=O)N[C@@H](CCN)C(=O)N[C@H]1CCNC(=O)[C@H]([C@@H](C)O)NC(=O)[C@H](CCN)NC(=O)[C@H](CCN)NC(=O)[C@H](CC(C)C)NC(=O)[C@@H](CC(C)C)NC(=O)[C@H](CCN)NC1=O)[C@@H](C)O [Colistin B, colistin B, reference compound] ({Heptanoyl(6-Me)}-[Dab]T[Dab][Dab][Dab][dL]L[Dab][Dab]T; lactam 4-C)", 0.5),
    ("CC1(C)[C@H](NC(=O)/C(=N\\OC2(C(=O)O)CC2)c2nsc(N)n2)C(=O)N1OS(=O)(=O)O", 0.06),
    ("C#CCON=C(C(=O)NC1C(=O)N(OS(=O)(=O)O)C1(C)C)c1csc(N)n1 (stereo not shown)", 0.5),
]

The measured values listed here are drawn from patent US12497393B2.
